Test system: MOLT-4 leukemia
Assay: NCI-60 one-dose screen, 48 h (100 = growth as untreated, 0 = no growth, -100 = all killed)
Conditions: 10 µM unless noted
About 83,000 compounds went through this panel and 20% of them were active in at least one assay; those are over-represented in the sample as a whole.
Would you kindly list growth for each of these molecules?
Answers are plain numbers, in %.

# molecule, numeric.value
records = [
    ("CC(C)c1ccc2c(N)c(C(=O)Nc3cccc(C(F)(F)F)c3)sc2n1", 56.4),
]

// for each molecule below, give its growth
1. Cc1sc(C(NC(=O)OCCn2c([N+](=O)[O-])cnc2C)C(F)(F)Cl)nc1-c1ccc(OC(F)(F)F)cc1 (stereo unspecified)
2. CC(=O)OCC1OC(OC2C(COC(C)=O)OC(n3cc(COc4ccc5ccc(=O)oc5c4)nn3)C(OC(C)=O)C2OC(C)=O)C(OC(C)=O)C(OC(C)=O)C1OC(C)=O (stereo unspecified)
3. COc1ccc2c(c1)c(-c1cc(N)n3nc(-c4cn(C)c5ccccc45)cc3n1)cn2C
4. CCCCCCCS(=O)(=O)N1CCCC(C(=O)Nc2nc3ccc(NC(=O)c4ccc(F)c(OC)c4F)cc3s2)C1 (stereo unspecified)

Completion:
1: 2.22; 2: 97; 3: 0.804; 4: 59.7

====

Test system: SK-MEL-28 melanoma
Experiment: NCI-60 one-dose screen, 48 h (100 = growth as untreated, 0 = no growth, -100 = all killed)
Conditions: 10 µM unless noted
This is part of a sample that, as a whole, favours compounds with a hit. Of some 83,000 tested, about 20% had one in any assay.
What growth was measured for each of the following?
One number for each entry, in %.

# molecule, numeric.value
measured = [
    ("Cn1cc(-c2cc3nc(-c4cn(C)c5ncccc45)cc(N)n3n2)c2ccccc21", -22.5),
    ("Nc1nc(-c2ccccc2)c(N=Nc2ccc([N+](=O)[O-])cc2Cl)s1", 89.1),
    ("COc1ccc(C(SCCNCc2cc(N(C)C)ccn2)(c2ccccc2)c2ccccc2)cc1", -65.3),
    ("CC(=O)c1cccc(NC(=O)CCC(=O)NS(=O)(=O)c2ccc(C)cc2)c1", 108),
    ("Cc1cnc(C(=O)NNc2nc3cc(F)ccc3n3c(C(=O)N4CC5CC(C4)N5)ccc23)cn1", 30.3),
    ("O=C(/C=C/c1ccc(O)c(O)c1)NC1CCOC1O (stereo not given)", 107),
    ("CC(=O)Nc1cccc(Nc2nccc(N[C@@H](C)c3ccccc3)n2)c1", 49.4),
    ("Cc1cc(=O)oc2cc(OCCOc3ccc(/C=C/C(=O)Nc4ccccc4N)cc3)ccc12", 39.9),
    ("O=C1/C(=C/C2=Cc3ccccc3OC2)SC(=S)N1c1ccccc1F", 105),
]

# ---- query molecule ----
Prompt: # lookup: growth of "O=C(COc1ccc(NC(=O)Nc2ccc(Cl)c(Cl)c2)cc1)N=Nc1c(O)[nH]c2ccc([N+](=O)[O-])cc12"
Completion: 57.6

====

System: SNB-19 CNS
Test: NCI-60 one-dose screen, 48 h (100 = growth as untreated, 0 = no growth, -100 = all killed)
Details: 10 µM unless noted
This is part of a sample that, as a whole, favours compounds with a hit. Of some 83,000 tested, about 20% had one in any assay.
endpoint.name: growth (%)
Give bare numbers, in %.

Here are 6 compounds together with their reported answers.
# compound, study.target, readout.units, growth
data = [
    ("COc1cc(C2CC(c3cc(OC)c(OC)c(OC)c3)=NN2C(C)=O)ccc1OCc1ccc(F)cc1 (stereo not drawn)", "SNB-19 CNS", "%", 60.9),
    ("COc1cc(C2CC(c3cc(OC)c(OC)c(OC)c3)=Nc3c(N)nc(N)nc3N2)ccc1Oc1nc(NCCO)nc(N2CCOCC2)n1 (stereo not drawn)", "SNB-19 CNS", "%", 94.9),
    ("O=C(O)c1cccc(-c2ccc(/C=N/NC(=O)c3[nH]c4ccc(Br)cc4c3-c3ccccc3)o2)c1", "SNB-19 CNS", "%", 30.7),
    ("Cc1cc2c(cc1Cl)C(=O)/C(=C/c1ccc(F)cc1)O2", "SNB-19 CNS", "%", 90.3),
    ("CNS(=O)(=O)c1ccc(Nc2ccc(C(F)(F)F)cc2)c(-c2cn(C)cn2)c1", "SNB-19 CNS", "%", 49.5),
    ("CCOC(=O)/C=C/c1cccc2c1C(=O)NC(C)(c1cc3cc(Cl)ccc3oc1=O)N2 (stereo not drawn)", "SNB-19 CNS", "%", 33.8),
]

Hey, quick one: what's growth for each of these?
1. CN1CCN(c2ccc(C(=O)/C=C/c3ccc(Br)cc3)cc2)CC1
2. Cc1c(C(=O)NNC(=O)Nc2ccc(Cl)cc2)nnn1-c1ccc(Br)cc1
3. COc1ccc(/C=C/c2nc3ccccc3c(=O)n2CC(=O)Nc2ccc(OC)cc2)cc1
4. COc1ccc(NC(=O)Cn2c(O)c(N=Nc3ccc(S(N)(=O)=O)cc3)c3ccccc32)cc1

Completion:
31.4
91.4
51.9
23

====

Test system: MDA-MB-435 melanoma
Assay: NCI-60 one-dose screen, 48 h (100 = growth as untreated, 0 = no growth, -100 = all killed)
Conditions: 10 µM unless noted
The panel holds about 83,000 compounds, 20% with a hit somewhere; the sample as a whole holds those more often.
Tick yes (1) if growth is 20% or greater. Tick no (0) if growth is less than 20%.

Some solved entries appear below for comparison.
# molecule, class.assignment
rows = [
    ("O=C(COc1ccc(NC(=O)Nc2ccccc2)cc1)N=Nc1c(O)[nH]c2ccc([N+](=O)[O-])cc12", "no (0)"),
    ("Cc1ccc(C2=NN(c3nc(-c4cc5ccccc5oc4=O)cs3)C(c3ccc(C)cc3)C2)cc1 (stereo not drawn)", "yes (1)"),
]

Prompt: Is growth at least 20%? Consider CC1(C)CC[C@]2(C(=O)O)CC[C@]3(C)C(=CCC4[C@@]5(C)C[C@@H](O)[C@@H]6OC(c7ccccc7F)OC[C@@]6(C)C5CC[C@]43C)C2C1 (stereo partly drawn)
Completion: no (0)

Prompt: Reported growth at or above 20%? "N#Cc1c(-c2ccccc2Cl)cc(-c2c[nH]c3ccccc23)[nH]c1=O"
Completion: yes (1)

Prompt: Tell me whether growth is at least 20% here: "O=C(NNc1ccccc1)n1c(=O)c2ccccc2c(=O)n1-c1ccccc1"
Completion: yes (1)

Prompt: Identify whether the reported growth of the following molecule is 20% or greater: "COc1cc(/C=C/C(=O)c2nnn(-c3ccc(Cl)cc3)c2C)cc(OC)c1OC"
Completion: no (0)

Prompt: Record "O=C(N=Nc1c(O)[nH]c2ccc([N+](=O)[O-])cc12)c1ccc2nc(-c3ccccc3)[nH]c2c1" ; criterion: growth no lower than 20%. Met?
Completion: yes (1)

Prompt: hey, is growth for this one >= 20%? CC12CC[C@@H]3[C@]4(C)COC(c5cn[nH]c5-c5cccc(Br)c5)O[C@@H]4CC[C@@]3(C)[C@@H]1CC(C1=CCOC1=O)O2 (stereo partly drawn)
Completion: yes (1)

Prompt: growth >= 20% for "O=C(Nc1ccc(C(F)(F)F)cc1)Nc1ccc2oc(=O)ccc2c1" ?
Completion: yes (1)

====

Can you tell me growth for the items I'm about to list?
Test system: 786-0 renal
Assay: NCI-60 one-dose screen, 48 h (100 = growth as untreated, 0 = no growth, -100 = all killed)
Details: 10 µM unless noted
Method: Cells are grown in 96 well plates and exposed to the test compound for 48 hours. Compounds are tested at a single concentration, which is 10^-5 M for most compounds. The reported endpoint is percent growth (GI% or GIPRCNT), where numbers from 0 - 100% represent growth inhibition, and numbers from -100% - 0 represent cell death. For example, a value of 40 represents 60% growth inhibition. A value of 0 means no net growth occurred over the course of the experiment. […]
This is part of a sample that, as a whole, favours compounds with a hit. Of some 83,000 tested, about 20% had one in any assay.
Numbers only, in %.

Reference set (3 entries):
# molecule, growth / %
records = [
    ("CC1=C(C(=O)c2ccccc2)C(c2cccc(Cl)c2Cl)n2c(nc3ccccc32)N1 (stereo not given)", 37.9),
    ("COc1ccc(C2=NN(C(C)=O)C(c3ccc(OCc4ccc(Cl)cc4)c(OC)c3)C2)cc1OC (stereo not given)", 57.9),
    ("Cc1cccc(NC(=O)CN2CCN(c3ncnc4c3cnn4-c3ccccc3)CC2)c1", 98.1),
]

I need growth for every entry listed below, if you could help.
1. COc1ccc(-c2ccc(SCC(=O)NCCc3ccc(S(N)(=O)=O)cc3)nn2)cc1
2. CN1CCN(c2ccc3c(c2)nc(NNC(=O)c2cnccn2)c2cccn23)CC1
3. O=C(Nc1cccc(-n2cnc3cc(-c4ccc(O)cc4)ccc32)c1)C1CC1
4. COc1ccc(C(=O)/C=C/c2ccc3ccccc3c2)cc1S(N)(=O)=O

Completion:
1. 85.8
2. -95.5
3. 25.8
4. -89.2
